These data points were gathered from ChEMBL document CHEMBL1136151.

# Tested on: Thanatephorus cucumeris
# Experiment summary: Percent growth of Rhizoctonia solani after 72 hours of incubation
# Type: functional
# Design: concentration or dose not given beside the values
Tag: 1 if measured Growth is not below 50%, 0 if it is.

Worked set:
{"columns": ["Smiles repr", "Label class"],
 "data": [
  ["CCCCC/C=C/c1c(OC)cc(=O)oc1C", 0],
  ["CCCC/C=C/c1c(OC)cc(C)oc1=O", 0],
  ["COc1cc(C)oc(=O)c1/C=C/c1ccccc1", 1],
  ["CCCCCC/C=C/c1cc(C)oc(=O)c1", 0],
  ["CCC/C=C/c1c(OC)cc(C)oc1=O", 0]
]}

Could you verify whether the entry CCCCCC/C=C/c1c(OC)cc(=O)oc1C shows Growth of no less than 50%? 0

Quick one: CCCCCC/C=C/c1c(OC)cc(C)oc1=O 1

Quick one: COc1cc(=O)oc(C)c1/C=C/c1ccccc1 1

Quick one: COc1cc(C)oc(=O)c1-c1ccccc1 1

Quick one: COc1cc(=O)oc(C)c1-c1ccc(C)cc1 1

Quick one: COc1ccc(-c2c(OC)cc(=O)oc2C)cc1 1

Quick one: Cc1cc(/C=C/c2ccccc2)cc(=O)o1 0

----------
# Test system: Escherichia coli
# Experiment summary: Antimicrobial activity against Escherichia coli was determined after 96 hours of incubation
# Type: functional
List of Activity values.
Answer format: numeric, mm implied, no suffix.

Below: 5 compounds and their reported Activity.
{"columns": ["Smiles repr", "Unit text", "Assay value"],
 "data": [
  ["CCCC/C=C/c1c(OC)cc(=O)oc1C", "mm", 18],
  ["Cc1cc(/C=C/c2ccccc2)cc(=O)o1", "mm", 17],
  ["COc1ccc(-c2c(OC)cc(C)oc2=O)cc1", "mm", 0],
  ["CCC/C=C/c1cc(C)oc(=O)c1", "mm", 19],
  ["CCCCCC/C=C/c1c(OC)cc(C)oc1=O", "mm", 0]
]}

# query: Activity of entry CCCCC/C=C/c1cc(C)oc(=O)c1 18

Quick one: COc1cc(C)oc(=O)c1-c1cccc([N+](=O)[O-])c1 0

----------
# Tested on: Thanatephorus cucumeris
# Experiment summary: Percent growth of Rhizoctonia solani after 72 hours of incubation
# Format: functional
# Parameters: concentration or dose not given beside the values
List of Growth values.
Answer format: numeric, % implied, no suffix.

Below: 2 molecules and their reported Growth.
{"columns": ["Smiles repr", "Target entity", "Growth [%]"],
 "data": [
  ["COc1cc(=O)oc(C)c1-c1ccccc1", "Thanatephorus cucumeris", 67],
  ["COc1ccc(-c2c(OC)cc(C)oc2=O)cc1", "Thanatephorus cucumeris", 81]
]}

# query: Growth of entry CCCC/C=C/c1c(OC)cc(=O)oc1C 41

Quick one: COc1cc(C)oc(=O)c1-c1ccc(C)cc1 55

Quick one: CCC/C=C/c1cc(C)oc(=O)c1 49

Quick one: CCCC/C=C/c1cc(C)oc(=O)c1 36

Quick one: COc1cc(C)oc(=O)c1-c1ccc(C=O)cc1 79

Quick one: CCCCC/C=C/c1c(OC)cc(C)oc1=O 47

Quick one: CCCCC/C=C/c1cc(C)oc(=O)c1 38

----------
# Tested on: Bacillus subtilis
# Experiment summary: Antimicrobial activity against Bacillus subtilis was determined after 96 hours of incubation
# Type: functional
Endpoint label: Activity (mm)
Answer format: numeric, mm implied, no suffix.

Below: 10 molecules and their reported Activity.
{"columns": ["Smiles repr", "Activity [mm]"],
 "data": [
  ["COc1cc(C)oc(=O)c1-c1cccc([N+](=O)[O-])c1", 6],
  ["COc1cc(C)oc(=O)c1-c1ccc(C)cc1", 16],
  ["Cc1cc(/C=C/c2ccccc2)cc(=O)o1", 18],
  ["COc1cc(C)oc(=O)c1-c1ccccc1", 6],
  ["CCC/C=C/c1c(OC)cc(C)oc1=O", 18],
  ["CCCCCC/C=C/c1c(OC)cc(C)oc1=O", 18],
  ["CCCC/C=C/c1cc(C)oc(=O)c1", 18],
  ["CCCC/C=C/c1c(OC)cc(C)oc1=O", 19],
  ["CCCCCC/C=C/c1c(OC)cc(=O)oc1C", 16],
  ["COc1ccc(-c2c(OC)cc(C)oc2=O)cc1", 0]
]}

# query: Activity of entry COc1cc(=O)oc(C)c1-c1ccc(C)cc1 8

Quick one: COc1cc(=O)oc(C)c1-c1ccccc1 6

Quick one: CCCCCC/C=C/c1cc(C)oc(=O)c1 18

Quick one: CCC/C=C/c1cc(C)oc(=O)c1 16

Quick one: CCCC/C=C/c1c(OC)cc(=O)oc1C 17

Quick one: COc1cc(C)oc(=O)c1-c1ccc(Cl)cc1 17

Quick one: COc1cc(=O)oc(C)c1/C=C/c1ccccc1 6

Quick one: CCCCC/C=C/c1c(OC)cc(=O)oc1C 19

Quick one: CCCCC/C=C/c1c(OC)cc(C)oc1=O 20

----------
# Test system: Bacillus subtilis
# Experiment summary: Antimicrobial activity against Bacillus subtilis was determined after 96 hours of incubation
# Format: functional
Endpoint label: Activity (mm)
Answer format: numeric, mm implied, no suffix.

Below: 4 molecules and their reported Activity.
{"columns": ["Smiles repr", "Activity / mm"],
 "data": [
  ["COc1ccc(-c2c(OC)cc(=O)oc2C)cc1", 14],
  ["CCCCC/C=C/c1cc(C)oc(=O)c1", 18],
  ["CCC/C=C/c1c(OC)cc(=O)oc1C", 16],
  ["COc1cc(C)oc(=O)c1/C=C/c1ccccc1", 0]
]}

Next item in the queue.
# query: Activity of entry COc1cc(C)oc(=O)c1-c1ccc(C=O)cc1 6
